# System: U2OS
# protocol.details: Multiplex assay against U2OS
# Format: toxicity, cell-based
# run.parameters: human, 12 h, 10 µM, compound concentration 10 uM, replicate 2
Each item that follows carries a reported Population Fragmented Nuclei (%).
property: Population Fragmented Nuclei (%)

# compound, unit.tag, val
records = [
    ("O=C1NCN(c2ccccc2)C12CCN(CCCOc1ccc(F)cc1)CC2 [SPIRAMIDE]", "%", 3),
    ("COc1ccc(Oc2cc(NCCC(F)(F)F)c3ncc(-c4ccc(C(=O)NC5CC5)c(C)c4)n3n2)c(F)c1F", "%", 19),
    ("CC(C)(O)CNc1ncc(-c2ccnc(Nc3ccnc(Cl)c3)n2)c(CC2CC2)n1", "%", 10),
    ("CC(C)NCC(O)COc1ccc(CCOCC2CC2)cc1.Cl (configuration not stated) [BETAXOLOL HYDROCHLORIDE]", "%", 9),
    ("CN(C)CC#Cc1ccc(OCCCc2sc(N3CCc4cccc(C(=O)Nc5nc6ccccc6s5)c4C3)nc2C(=O)O)c(F)c1", "%", 33),
    ("CN1CCCC(n2nc(Cc3ccc(Cl)cc3)c3ccccc3c2=O)CC1.Cl (configuration not stated) [AZELASTINE HYDROCHLORIDE]", "%", 14),
    ("C=CC(=O)Nc1cccc(C(=O)Nc2ccc(Nc3cc(-c4[nH]c(SC)nc4C)ccn3)cc2)c1", "%", 6),
    ("CN1CCN(c2ccc(OC(F)(F)F)c(Nc3ncc4c(n3)-c3c(c(C(N)=O)nn3CCO)CC4)c2)CC1", "%", 9),
    ("C[C@@H](NCCCc1cccc(C(F)(F)F)c1)c1cccc2ccccc12.Cl [CINACALCET HYDROCHLORIDE]", "%", 20),
    ("CCN(CC)CCCCNc1ncc2cc(-c3cc(OC)cc(OC)c3)c(NC(=O)NC(C)(C)C)nc2n1", "%", 33),
    ("Cc1nc(Nc2n[nH]c3c2CN(C(=O)N[C@H](CN(C)C)c2ccccc2)C3(C)C)c2sccc2n1", "%", 20),
    ("CN1CCC[C@@H]1CCO[C@](C)(c1ccccc1)c1ccc(Cl)cc1.O=C(O)/C=C/C(=O)O [CLEMASTINE FUMARATE]", "%", 19),
    ("CNc1nc(NCc2ccc(NS(C)(=O)=O)cc2Cl)cc(-c2ccccn2)n1", "%", 6),
    ("CN(C)C(=O)/C(C#N)=C/c1ccc(-c2nc3cnc4[nH]ccc4c3n2C2CCCCC2)o1", "%", 20),
    ("c1cn2cc(-c3ccc4cn[nH]c4c3)nc(Nc3ccc(N4CCOCC4)cc3)c2n1", "%", 30),
    ("Cc1cc(C)cc(-c2cnc3cc(Cl)c(-c4cccc(O)c4)cc3c2OCCCN)c1", "%", 16),
    ("Cc1c(-c2ccc(O)cc2)n(Cc2ccc(OCCN3CCCCCC3)cc2)c2ccc(O)cc12", "%", 7),
]

----------
# Tested on: U2OS
# protocol.details: Multiplex assay against U2OS
# Format: toxicity, cell-based
# run.parameters: human, 48 h, 1 µM, compound concentration 1 uM, replicate 2
property: Population Mitochondria Different-Phenotype (%)

# compound, target.or.system, val
rows = [
    ("C[C@@H](NCCCc1cccc(C(F)(F)F)c1)c1cccc2ccccc12.Cl [CINACALCET HYDROCHLORIDE]", "U2OS", "18%"),
    ("CN(C)C(=O)N[C@H]1CC[C@H](CCN2CCN(c3cccc(Cl)c3Cl)CC2)CC1.Cl [CARIPRAZINE HYDROCHLORIDE]", "U2OS", "15%"),
    ("Cl.N#Cc1ccc2[nH]cc(CCCCN3CCN(c4ccc5oc(C(N)=O)cc5c4)CC3)c2c1 [VILAZODONE HYDROCHLORIDE]", "U2OS", "9%"),
    ("CN(C)CC#Cc1ccc(OCCCc2sc(N3CCc4cccc(C(=O)Nc5nc6ccccc6s5)c4C3)nc2C(=O)O)c(F)c1", "U2OS", "43%"),
    ("OC1(c2ccc(Cl)cc2)CCN(Cc2c[nH]c3ccccc23)CC1", "U2OS", "17%"),
]

----------
# Test system: U2OS
# protocol.details: Multiplex assay against U2OS
# Assay type: toxicity, cell-based
# run.parameters: human, 24 h, 1 µM, compound concentration 1 uM, replicate 1

# compound, Population Healthy Nuclei (%)
data = [
    ("NC(=O)Nc1cc(-c2cccc(F)c2)sc1C(=O)N[C@H]1CCCNC1", 52),
    ("CN(C)C(=O)N[C@H]1CC[C@H](CCN2CCN(c3cccc(Cl)c3Cl)CC2)CC1.Cl [CARIPRAZINE HYDROCHLORIDE]", 73),
    ("Cc1nc(-c2cn3c(n2)-c2ccc(-c4cnn(C(C)(C)C(N)=O)c4)cc2OCC3)n(C(C)C)n1", 80),
    ("CN1CCC[C@@H]1CCO[C@](C)(c1ccccc1)c1ccc(Cl)cc1.O=C(O)/C=C/C(=O)O [CLEMASTINE FUMARATE]", 85),
]

----------
Parameter Population Mitochondria Different-Phenotype (%): see the listing below.
# Test system: HEK-293T
# protocol.details: Multiplex assay against HEK293T
# Assay type: toxicity, cell-based
# run.parameters: human, 12 h, 10 µM, compound concentration 10 uM, replicate 2
property: Population Mitochondria Different-Phenotype (%)

# compound, val
records = [
    ("COc1cc(-n2cnc3cc(-c4ccc(Cl)cc4)sc3c2=O)ccc1OCCN1CCCC1", 58),
    ("c1cn2cc(-c3ccc4cn[nH]c4c3)nc(Nc3ccc(N4CCOCC4)cc3)c2n1", 85),
    ("Cl.N#Cc1ccc2[nH]cc(CCCCN3CCN(c4ccc5oc(C(N)=O)cc5c4)CC3)c2c1 [VILAZODONE HYDROCHLORIDE]", 84),
    ("O=C1NCN(c2ccccc2)C12CCN(CCCOc1ccc(F)cc1)CC2 [SPIRAMIDE]", 55),
    ("CC[C@H](C)C(=O)O[C@H]1C[C@@H](C)C=C2C=C[C@H](C)[C@H](CC[C@@H]3C[C@@H](O)CC(=O)O3)[C@H]21", 21),
    ("CN(C)C(=O)N[C@H]1CC[C@H](CCN2CCN(c3cccc(Cl)c3Cl)CC2)CC1.Cl [CARIPRAZINE HYDROCHLORIDE]", 96),
    ("CN1CCC[C@@H]1CCO[C@](C)(c1ccccc1)c1ccc(Cl)cc1.O=C(O)/C=C/C(=O)O [CLEMASTINE FUMARATE]", 96),
    ("COc1cccc([C@@H](C)NCCCc2ccccc2Cl)c1.Cl [TECALCET HYDROCHLORIDE]", 95),
]

----------
# System: U2OS
# protocol.details: Multiplex assay against U2OS
# Assay type: toxicity, cell-based
# run.parameters: human, 48 h, 10 µM, compound concentration 10 uM, replicate 1
Everything with Population Mitotic Cells (%) lower than 20% is 0 (no); everything else, including exactly 20%, is 1 (yes).

# compound, discrete.label
rows = [
    ("CN1CCC[C@@H]1CCO[C@](C)(c1ccccc1)c1ccc(Cl)cc1.O=C(O)/C=C/C(=O)O [CLEMASTINE FUMARATE]", "0 (no)"),
    ("CCOCCn1cc(C(=O)Nc2ccc(-n3nc(-c4cccnc4)cc3C(F)(F)F)cn2)ccc1=O", "1 (yes)"),
    ("COc1cccc([C@@H](C)NCCCc2ccccc2Cl)c1.Cl [TECALCET HYDROCHLORIDE]", "1 (yes)"),
    ("CC[C@H](C)C(=O)O[C@H]1C[C@@H](C)C=C2C=C[C@H](C)[C@H](CC[C@@H]3C[C@@H](O)CC(=O)O3)[C@H]21", "1 (yes)"),
    ("C=CC(=O)Nc1cccc(C(=O)Nc2ccc(Nc3cc(-c4[nH]c(SC)nc4C)ccn3)cc2)c1", "1 (yes)"),
    ("CN(C)C(=O)/C(C#N)=C/c1ccc(-c2nc3cnc4[nH]ccc4c3n2C2CCCCC2)o1", "1 (yes)"),
    ("COc1cc(-n2cnc3cc(-c4ccc(Cl)cc4)sc3c2=O)ccc1OCCN1CCCC1", "0 (no)"),
    ("CN(C)CC#Cc1ccc(OCCCc2sc(N3CCc4cccc(C(=O)Nc5nc6ccccc6s5)c4C3)nc2C(=O)O)c(F)c1", "1 (yes)"),
    ("CC(C)(O)CNc1ncc(-c2ccnc(Nc3ccnc(Cl)c3)n2)c(CC2CC2)n1", "0 (no)"),
    ("CCn1c(=O)c(-c2ccc(Cl)cc2Cl)cc2cnc(Nc3ccc(N4CCNCC4)c(F)c3)nc21", "0 (no)"),
]

----------
# System: U2OS
# protocol.details: Multiplex assay against U2OS
# Type: toxicity, cell-based
# run.parameters: human, 24 h, 1 µM, compound concentration 1 uM, replicate 1
property: Population Fragmented Nuclei (%)

# compound, property, val
rows = [
    ("CN1CCC[C@@H]1CCO[C@](C)(c1ccccc1)c1ccc(Cl)cc1.O=C(O)/C=C/C(=O)O [CLEMASTINE FUMARATE]", "Population Fragmented Nuclei (%)", "7%"),
    ("CNc1nc(NCc2ccc(NS(C)(=O)=O)cc2Cl)cc(-c2ccccn2)n1", "Population Fragmented Nuclei (%)", "9%"),
    ("COc1cc(-n2cnc3cc(-c4ccc(Cl)cc4)sc3c2=O)ccc1OCCN1CCCC1", "Population Fragmented Nuclei (%)", "6%"),
    ("NC(=O)Nc1cc(-c2cccc(F)c2)sc1C(=O)N[C@H]1CCCNC1", "Population Fragmented Nuclei (%)", "15%"),
    ("CC(C)(O)CNc1ncc(-c2ccnc(Nc3ccnc(Cl)c3)n2)c(CC2CC2)n1", "Population Fragmented Nuclei (%)", "6%"),
    ("O=C1NCN(c2ccccc2)C12CCN(CCCOc1ccc(F)cc1)CC2 [SPIRAMIDE]", "Population Fragmented Nuclei (%)", "8%"),
    ("CN1CCN(c2ccc(OC(F)(F)F)c(Nc3ncc4c(n3)-c3c(c(C(N)=O)nn3CCO)CC4)c2)CC1", "Population Fragmented Nuclei (%)", "14%"),
]

Reference for the values: ChEMBL document CHEMBL4689842
